target: 5-hydroxytryptamine receptor 2A (Homo sapiens); experiment: 5-hydroxytryptamine receptor 2A (HTR2A) small molecule antagonists, cell-based qHTS assay (AID 1963586); conditions: HTR2A-CHO cells, DOI-induced calcium flux, fluorescence; series mostly up to 61.5 µM; note: nearly all actives have a fitted effect of over 45% in size
Inconclusive results are not listed. The source made the active and inactive calls. Calls come from the whole dose curve.
Outcomes: active, inactive

| MOLECULE | CATEGORY |
| --- | --- |
| CNC(=O)Oc1ccc(N(C)C)c(C)c1 | inactive |
| CCCCNP(N)(N)=S | inactive |
| CCC[CH2][Sn]([CH2]CCC)([CH2]CCC)[CH2]CCC | inactive |
| CN[C@@H](C)[C@H](O)c1ccccc1 | inactive |
| BrC(Br)C(Br)(Br)Br | inactive |
| C=C(C)C(=O)[O][Sn]([CH2]CCC)([CH2]CCC)[CH2]CCC | active |
| O=C1C(=O)c2cccc3cccc1c23 | inactive |
| CSC1=N[C@@](C)(c2ccccc2)C(=O)N1Nc1ccccc1 | inactive |
| O=[N+]([O-])c1cc(Cl)c(Cl)cc1Cl | inactive |
| Cc1nc(N(C)C)nc(OC(=O)N(C)C)c1C | inactive |
| CC(C)NCC(O)c1ccc([N+](=O)[O-])cc1 (stereo not given) | inactive |
| CNN | inactive |
| CCCSP(=O)(OCC)Oc1ccc(Br)cc1Cl (stereo not given) | inactive |
| Cc1c([N+](=O)[O-])cc2c(c1[N+](=O)[O-])C(C)(C)CC2(C)C | inactive |
| C#C[C@]1(O)C=C[C@H]2[C@@H]3CCC4=CC(=O)CC[C@@H]4[C@H]3CC[C@@]21CC | inactive |
| COC1=CC(=O)O[C@@H](/C=C/c2ccccc2)C1 | inactive |
| CCOP(=S)(OCC)Oc1cc(Cl)c(Br)cc1Cl | inactive |
| C[N+](C)(C)CCCl | inactive |
| CCc1cc2c(s1)-n1c(C)nnc1CN=C2c1ccccc1Cl | inactive |
| O=C(N[C@H]1CN2CCC1CC2)c1ccc2c(c1)OCCO2 | inactive |
| CC(=O)[O-].CC(=O)[O-].O.O.[Zn+2] | inactive |
| Fc1cccc(Cl)c1CCl | inactive |
| N#CC(CCc1ccc(Cl)cc1)(Cn1cncn1)c1ccccc1 (stereo not given) | inactive |
| CC1(C)[C@H](C=C(Cl)Cl)[C@@H]1C(=O)O[C@@H](C#N)c1cccc(Oc2ccccc2)c1 | inactive |
| CCOP(=O)(OCC)Oc1cc(C)nc(C(C)C)n1 | inactive |
| Cc1cccc(C)c1NC1=NCCCS1 | inactive |
| CC(c1ccccc1)(c1ccc(O)cc1)c1ccc(O)cc1 | inactive |
| CCOCn1c(-c2ccc(Cl)cc2)c(C#N)c(Br)c1C(F)(F)F | inactive |
| CN(C)c1ccc(N)cc1 | inactive |
| Brc1cccc(-c2ccccc2)c1 | inactive |

###

molecular target: 5-hydroxytryptamine receptor 2A (Homo sapiens); assay: 5-hydroxytryptamine receptor 2A (HTR2A) small molecule agonists, cell-based qHTS assay (AID 1963587); settings: HTR2A-CHO cells, calcium flux fluorescence, agonist mode; series mostly up to 76.8 µM; note: nearly all actives have a fitted effect of over 30% in size
Results filed as inconclusive are left out. Active and inactive are the calls of the source. Calls come from the whole dose curve.
Outcomes: active, inactive

| COMPOUND | CATEGORY |
| --- | --- |
| COP(=S)(OC)Oc1ccc([N+](=O)[O-])c(C)c1 | inactive |
| CCOC(C(=O)OCCN(C)C)(c1ccccc1)c1ccccc1 | inactive |
| [O-][Cl+3]([O-])([O-])O | inactive |
| CC[N+]1(C)CCCC(OC(=O)C(O)(c2ccccc2)c2ccccc2)C1 (stereo not given) | inactive |
| CCSCc1ccccc1OC(=O)NC | inactive |
| O=C(c1ccccc1)C(Cl)Cl | inactive |
| Nc1ccc(N=Nc2ccccc2)cc1 | inactive |
| C[C@]12CC[C@H](O)C[C@H]1CC[C@@H]1[C@@H]2C[C@@H](O)[C@]2(C)[C@@H](C3=CC(=O)OC3)CC[C@]12O | inactive |
| Brc1cccc(-c2ccccc2)c1 | inactive |
| Oc1ccc([C@H]2CNCc3c2ccc(O)c3O)cc1O | active |
| O.O.O.O.O.O.O.O=S(=O)([O-])[O-].[Co+2] | inactive |
| NNCc1ccccc1 | inactive |
| CC(c1ccc(O)cc1)(c1ccc(O)cc1)c1ccc(O)cc1 | active |
| Oc1ccc(Cc2ccc(O)cc2)cc1 | inactive |
| COP(=O)(OC)Oc1ccc([N+](=O)[O-])cc1 | inactive |
| CC(C)=CCOc1c2occc2cc2ccc(=O)oc12 | inactive |
| CCS(=O)(=O)C(C)(C)S(=O)(=O)CC | inactive |
| CCCCCCCCCCCCCCC(Br)C(=O)O (stereo not given) | inactive |
| CCN(CC)c1nc(C)cc(OP(=S)(OC)OC)n1 | inactive |
| O=[N+]([O-])c1ccccc1CCl | inactive |

###

test: Nuclear factor erythroid 2-related factor 2/antioxidant responsive element (Nrf2/ARE) small molecule agonists: qHTS cell viability counter screen in human keratinocytes (AID 1919968); conditions: KeratinoSens HaCaT ARE cells viability, CellTiter-Fluor, 24 h; series mostly up to 92.4 µM; note: nearly all actives have a fitted effect of over 55% in size
Records with an inconclusive call do not appear. Activity calls are given as the source filed them. Calls follow the shape of the dose curve; as a rule, active = well fitted cell-killing curve with a large enough effect in the repeat runs; inconclusive = weak or mixed curves, or effect the other way; inactive = flat fitted curve, though single readings scatter.
Outcomes: active, inactive

| MOLECULE | CATEGORY |
| --- | --- |
| Nc1cc(Cl)ccc1O | inactive |
| CC(=O)NC1CCSC1=O (stereo not drawn) | inactive |
| Clc1cc(C(Cl)(Cl)Cl)cnc1Cl | inactive |
| CCC(C)Nc1c([N+](=O)[O-])cc(C(C)(C)C)cc1[N+](=O)[O-] (stereo not drawn) | inactive |
| O=C(Oc1ccc(Br)cc1)N1CCN2CCC1CC2 | inactive |
| CC1=NNC(=O)N(/N=C/c2cccnc2)C1 | inactive |
| Clc1ccc(CO/N=C(\Cn2ccnc2)c2ccc(Cl)cc2Cl)c(Cl)c1 | active |
| CC(C)CC(C)Nc1ccc(Nc2ccccc2)cc1 (stereo not drawn) | active |

###

test: Nuclear factor erythroid 2-related factor 2/antioxidant responsive element (Nrf2/ARE) small molecule agonists: luciferase reporter gene qHTS assay in human keratinocytes (AID 1919969); settings: KeratinoSens HaCaT ARE-luciferase, luminescence, 24 h; series mostly up to 92.4 µM; note: nearly all actives have a fitted effect of over 35% in size; note: potency is the fitted concentration of half-maximal effect
Inconclusive results are not listed. The source made the active and inactive calls. The call rests on the fitted dose curve.
OBSERVABLE: Potency

| MOLECULE | OBSERVABLE | MEASURED_VALUE |
| --- | --- | --- |
| COc1ccccc1N1CCNCC1 | Potency | inactive |
| CCCCCCCCCCCCCCCCCCn1cc[n+](C)c1 | Potency | inactive |
| O=C(O)C(F)(F)C(F)(F)C(F)(F)C(F)(F)C(F)(F)F | Potency | inactive |
| CCc1cc(OC)c(C[C@H](C)N)cc1OC | Potency | inactive |
| CO/N=C(/C1=NOCCO1)c1ccccc1Oc1ncnc(Oc2ccccc2Cl)c1F | Potency | inactive |
| CC(O)C#N (centres undefined) | Potency | 61.1 µM (active) |
| CCNP(=S)(OC)O/C(C)=C/C(=O)OC(C)C (centres undefined) | Potency | inactive |
| N#CSCc1ccccc1 | Potency | 68.9 µM (active) |
| COc1ncc(F)c2nc(S(=O)(=O)Nc3c(F)cccc3F)nn12 | Potency | inactive |
| CO/C=C(/C(=O)OC)c1ccccc1COc1cccc(C(F)(F)F)n1 | Potency | inactive |
| Oc1cccc(Cl)c1Cl | Potency | inactive |
| C=C(C)[C@H]1CN[C@H](C(=O)O)[C@H]1CC(=O)O | Potency | inactive |
| C=CC(=O)OCC(COC(=O)C=C)(COC(=O)C=C)COC(=O)C=C | Potency | 6.11 µM (active) |
| N[C@@H](Cc1ccc(Oc2cc(I)c(O)c(I)c2)c(I)c1)C(=O)O | Potency | inactive |
| O=CCCl | Potency | inactive |
| Cc1nc(N(C)C)nc(OC(=O)N(C)C)c1C | Potency | inactive |
| Oc1ccccc1Br | Potency | inactive |
| c1ccc2c(c1)cc1ccc3cccc4ccc2c1c34 | Potency | inactive |
| CC(C)(C)c1ccc(CSc2cnn(C(C)(C)C)c(=O)c2Cl)cc1 | Potency | inactive |

###

test: p53 small molecule agonists, cell-based qHTS assay with rat liver microsomes: qHTS cell viability counter screen (AID 1963580); conditions: p53RE-bla HCT-116 + rat microsomes, ATP viability, 16 h; series mostly up to 66 µM; note: nearly all actives have a fitted effect of over 45% in size
Results filed as inconclusive are left out. Active and inactive are the calls of the source. Calls follow the shape of the full dose curve.
Outcomes: Yes (active), No (inactive)

| COMPOUND | CATEGORY |
| --- | --- |
| CCOP(=S)(OCC)SC(CCl)N1C(=O)c2ccccc2C1=O (stereo not given) | No |
| [Cl][Sn]([c]1ccccc1)([c]1ccccc1)[c]1ccccc1 | Yes |
| CCOc1cc(C(C)(C)C)ccc1C1COC(c2c(F)cccc2F)=N1 (stereo not given) | No |
| CC(C)(Cl)[N+](=O)[O-] | No |
| CCCCCCCCCCCCCN1CC(C)OC(C)C1 (stereo not given) | No |
| CCCCc1ccccc1 | No |
| OP(O)c1ccccc1 | No |
| CC(C(O)c1ccccc1)N(C)C/C=C/c1ccccc1 (stereo not given) | No |
| Nc1ccc([N+](=O)[O-])cc1[N+](=O)[O-] | No |
| O=C(O)CBr | No |
| O=C(CCl)NCO | No |
| CC(C1CC1)C(O)(Cn1cncn1)c1ccc(Cl)cc1 (stereo not given) | No |
| CCOP(=O)(OCC)Oc1nc(Cl)c(Cl)cc1Cl | No |
| COP(=O)(OC)Oc1ccc([N+](=O)[O-])cc1 | No |
| CC(C)CCCCCCCOC(=O)c1ccccc1C(=O)OCCCCCCCC(C)C | No |
| Cc1ccn2nc(S(=O)(=O)Nc3c(F)cccc3F)nc2n1 | No |
| BrCBr | No |
| CN1C(=S)CN=C(c2ccccc2)c2cc(Cl)ccc21 | No |
| CC(C)N(CCC(C(N)=O)(c1ccccc1)c1ccccn1)C(C)C (stereo not given) | No |
| O=C(C(Cl)(Cl)Cl)C(Cl)(Cl)Cl | No |

Hello, the source for this data is PubChem BioAssay (Tox21), in case you need it.
